System: NCI-H23
Assay: NCI tumour cell line growth inhibition, 48 h
Calls of active or inactive are those of the source. No stated cut-off is given here; in the data, active = GI50 up to about 1.1 µM and inactive = higher.
Would you mind answering with one of these outcomes? active, inactive

Some entries whose results are on file:
CC(=O)NC1C(OCc2ccccc2)OC(COC(=O)CCCCCNc2ccc([N+](=O)[O-])c3[nH]c4ccc(O)cc4c(=O)c23)C(O)C1OC(C)C(=O)N[C@@H](C)C(=O)N[C@H](CCC(=O)OCc1ccccc1)C(N)=O (some centres undefined) ... inactive
C=C1C(=O)OC2C3C(=C)[C@@H](OC(C)=O)CC3C(C)=CC(OC(=O)C(C)(OC(C)=O)C(C)OC(C)=O)[C@@H]12 (some centres undefined) ... inactive
CCC(=O)OC[n+]1ccc2c(C)c3[nH]c4ccccc4c3c(C)c2c1 ... active

Next:
[ask] GET /call?item= C=C[C@@]1(C)CC2CC[C@]3(C)C(C)=CC(=O)CC3[C@]2(C)CC1O (some centres undefined) returns the recorded outcome of this test.
[reply] inactive

====

Tested on: SK-MEL-2
Experiment: NCI tumour cell line growth inhibition, 48 h
The source made the active and inactive calls. Rule as the data show it: active = GI50 up to about 1.1 µM and inactive = higher.
ENDPOINT_LABEL: GI50

Before answering, review these 3 worked examples.
N#CC1C(C#N)C2(c3ccccc3)C(c3ccccc3)=NN(c3ccccc3)CC12 (stereo not drawn) ... > 100 µM (inactive)
C=CCSC1=N/C(=C\c2ccc(C)cc2)C(=O)N1CC=C ... 25.8 µM (inactive)
Cc1cc2c(c(O)c1-c1c(C)cc(O)c3c1C(=O)C=CC3=O)C(=O)C=CC2=O ... 10 µM (inactive)

[ask] Look up GI50 of c1ccc(C2=NN3CN(N2)c2ccccc2OCCCOc2ccccc23)cc1 and report it.
[reply] > 100 µM (inactive)

[ask] State its GI50: COc1ccc(-c2nc(N)n(C)c2SSc2c(-c3ccc(OC)cc3)nc(N)n2C)cc1
[reply] 15.6 µM (inactive)

[ask] For O=C(O)c1ccc(C2=Cc3cc(Cl)ccc3OC2)cc1 , write its GI50.
[reply] > 100 µM (inactive)

[ask] Please list GI50 recorded for the compound Cc1cc(-c2cccc3ccccc23)c(C#N)c(=S)n1C1OC(CO)C(O)C(O)C1O (stereo not drawn)
[reply] > 100 µM (inactive)

[ask] Look up and state reported GI50 for COc1ccc2c(c1)[n+]([O-])c(-c1ccc(C)cc1)c(N)[n+]2[O-]
[reply] 40.6 µM (inactive)

====

GI50: recorded values
System: EKVX
Test: NCI tumour cell line growth inhibition, 48 h
The source made the active and inactive calls. No stated cut-off is given here; in the data, active = GI50 up to about 1.1 µM and inactive = higher.

COc1cc(/C=C/C(=O)c2cccc3ccccc23)cc(OC)c1OC ... 15 µM (inactive)
O=c1c2ncn(C3CCCCO3)c2n(-c2ccccc2)c(=S)n1-c1ccccc1 (stereo not given) ... 39.5 µM (inactive)
COC(=O)CCCC(=O)NC1=C(Nc2ccc(OC)cc2)C(=O)c2ccccc2C1=O ... 21.9 µM (inactive)
COC(=O)/C(=C(/C)c1ccco1)P(=O)(OC)OC ... > 100 µM (inactive)

Moving on to the next molecule.
[ask] For the molecule Oc1cc(O)cc(/C=C/c2ccc(O)c(O)c2)c1 [PICEATANNOL] , give its measured GI50 value.
[reply] 28.2 µM (inactive)

====

Tested on: OVCAR-3
Assay: NCI tumour cell line growth inhibition, 48 h
Calls of active or inactive are those of the source. Cut-off read from the data, not from the text of the source: active = GI50 up to about 1.1 µM and inactive = higher.
Readings of GI50 for the listed molecules

// known answers, use as guide
O=[N+]([O-])c1ccc2nc(-c3ccccn3)c(-c3ccccn3)nc2c1 ... 29.4 µM (inactive)
O=C(CC(C(=O)c1cccs1)c1ccsc1)c1ccsc1 (configuration not stated) ... 40.2 µM (inactive)
Cn1cnc([N+](=O)[O-])c1Sc1nc2ccccc2s1 ... 3.7 µM (inactive)

# evaluate next
[ask] Given the molecule CCCCc1ccc(-n2sc3ncc(-c4ccccc4)cc3c2=O)cc1 , write its reported GI50.
[reply] > 100 µM (inactive)

====

System: KM12
Experiment: NCI tumour cell line growth inhibition, 48 h
Active and inactive are the calls of the source. No stated cut-off is given here; in the data, active = GI50 up to about 1.1 µM and inactive = higher.
Entries and their GI50

N=C(N)SCc1cc(Cl)cc(Cl)c1O ... 18.4 µM (inactive)
COc1cc2c(cc1OC)C(C(c1ccccc1)c1ccccc1)N(C)CC2 (stereo unspecified) ... > 100 µM (inactive)
CC(C)/C(Cl)=N/OC(=O)Nc1ccc(Br)cc1 ... 12.9 µM (inactive)

[ask] Find the measured GI50 of COC1(OC)C2(Cl)C3=CCCC=C3C1(Cl)C(Cl)=C2Cl and report it.
[reply] 34.3 µM (inactive)

[ask] Tell me its GI50 given CSC1=Nc2ccccc2N=C(c2ccccc2)C1 as the entry.
[reply] 36 µM (inactive)

[ask] Identify the reported GI50 for the following entry. O=C(c1ccccc1)C1CCCCN1C(=O)c1ccccc1 (stereo unspecified)
[reply] > 100 µM (inactive)

====

Test system: LOX IMVI
Test: NCI tumour cell line growth inhibition, 48 h
Calls of active or inactive are those of the source. No stated cut-off is given here; in the data, active = GI50 up to about 1.1 µM and inactive = higher.
ENDPOINT_LABEL: GI50

COC(=O)C(C)(/N=C/c1ccccc1)c1ccccc1 (centres undefined) ... > 100 µM (inactive)
COc1ccc(Oc2ccccc2N)cc1 ... 81.1 µM (inactive)
COC(=O)C1CCC(=O)N1CN(C(C)=O)c1ccccc1 (centres undefined) ... > 100 µM (inactive)

Please turn your attention to the following entry.
[ask] Return the recorded GI50 value; entry: CCc1ccccc1NC(=O)C1=C(C)NC(C)=C(C(=O)Nc2ccccc2CC)C1c1ccc(NC(C)=O)cc1
[reply] 16.1 µM (inactive)

====

Recorded GI50 by entry
System: LOX IMVI
Assay: NCI tumour cell line growth inhibition, 48 h
Active and inactive are the calls of the source. Rule as the data show it: active = GI50 up to about 1.1 µM and inactive = higher. Square brackets hold non-standard residues; d marks the D form. Peptide text beside a SMILES is read from it. * marks the point of attachment. X26 = COC1=CC(=O)N(C(=O)[C@@H](O*)C(C)C)[C@H]1Cc1ccccc1; NMeL = CN[C@@H](CC(C)C)C(=O)O; Hexanoyl = CCCCCC(=O)*

Worked examples, 3 molecules total:
COc1cc(/C=C2\C(=O)N(C(=O)c3ccc(NC(C)=O)cc3)N=C2C)ccc1O ... > 100 µM (inactive)
CCCCCC(=O)N[C@H](C(=O)N[C@H](C(=O)N(C)[C@@H](CC(C)C)C(=O)N1CCC[C@H]1C(=O)N1CCC[C@H]1C(=O)O[C@H](C(=O)N1C(=O)C=C(OC)[C@@H]1Cc1ccccc1)C(C)C)C(C)C)C(C)C (Hexanoyl-VV[NMeL]PP-X26) ... > 100 µM (inactive)
Cc1c(N2C(=O)/C(=C/C=C/c3ccccc3)N=C2c2ccccc2)c(=O)n(-c2ccccc2)n1C ... 21.5 µM (inactive)

[ask] Write down GI50 measured for item Cc1n[nH]c(=O)n1C1CCCC1
[reply] > 100 µM (inactive)

[ask] Answer with the recorded GI50 of Nc1nc(Cl)c(N)c(NCC2(CO)CC(O)C2)n1 (centres undefined) only.
[reply] > 100 µM (inactive)

[ask] Look up GI50 of O=C1C=C2SC3C[C@@]24CC1[N+]1=c2c4c(c(O)c4c2=C(C=N4)CC1)N3 and report it.
[reply] 2.51 µM (inactive)

====

Test system: HCC 2998
Assay: NCI tumour cell line growth inhibition, 48 h
Calls of active or inactive are those of the source. Rule as the data show it: active = GI50 up to about 1.1 µM and inactive = higher.
Overview of recorded GI50 for various molecules

CCOC(=O)c1cnc2sc3ccc4ccccc4c3n2c1=O ... > 100 µM (inactive)
Cc1cc2c(c(O)c1-c1c(C)cc(O)c3c1C(=O)C=CC3=O)C(=O)C=CC2=O ... 3.13 µM (inactive)
CSC1=Nc2ccccc2N=C(c2ccccc2)C1 ... 62.2 µM (inactive)

[ask] Consider the molecule CNC(=O)CN1CC(=O)N(C)C(=O)C1 and give its recorded GI50.
[reply] > 100 µM (inactive)

====

Test system: RXF 393
Experiment: NCI tumour cell line growth inhibition, 48 h
The source made the active and inactive calls. Cut-off read from the data, not from the text of the source: active = GI50 up to about 1.1 µM and inactive = higher.
// classify into TRUE (active), FALSE (inactive)

[ask] // return assay outcome for O=c1cc(C(F)(F)F)c2cc3c(cc2o1)NCCC3
[reply] TRUE

[ask] Recorded call for CCOP(=O)(OCC)C(Nc1cccc(F)c1)c1ccc(N(C)C)cc1 (centres undefined) ?
[reply] FALSE

[ask] Called result for CCOP(=O)(OCC)C(Nc1cccc(F)c1)c1ccccc1 (centres undefined)
[reply] FALSE

[ask] Hi team, can someone confirm the assay call for Cn1c(O)c(C(=O)Nc2ccc([N+](=O)[O-])cc2)c(=O)n(C)c1=S ?
[reply] TRUE

====

Recorded GI50 by entry
System: NCI-H226
Assay: NCI tumour cell line growth inhibition, 48 h
The source made the active and inactive calls. No stated cut-off is given here; in the data, active = GI50 up to about 1.1 µM and inactive = higher.

Examples with their reported GI50 follow.
COc1ccc(OC(C)C(=O)O)c2c1CCCC2=O (stereo not given) ... > 100 µM (inactive)
CC(C)(C)OC(=O)Nc1nnc(S(N)(=O)=O)s1 ... > 100 µM (inactive)

[ask] Assign GI50 to the following record: COC(=O)c1cc(C(=CCC[C@H]2CC[C@@]3(C)C(CCC4C3CC[C@@]3(C)C4CC[C@@H]3C(C)CCCC(C)C)C2)c2cc(Cl)c(O)c(C(=O)OC)c2)cc(Cl)c1O (stereo not given in full)
[reply] > 10 µM (inactive)

[ask] Supply measured GI50 of CC1(C)C2CCC1(C)C(N/C(=C(/C(Cl)=C(Cl)Cl)[N+](=O)[O-])n1nnc3ccccc31)C2 (stereo not given) in your reply.
[reply] 19.5 µM (inactive)

[ask] State its GI50: CC[C@@]12N=C(N(C)C)C[C@]1(O)ON=C2C
[reply] > 100 µM (inactive)

[ask] Retrieve GI50 measured for COc1ccc(C=C2C(C)=NN(c3cccc(Cl)c3)C23C(Cl)C(=O)N3c2nc3ccccc3s2)cc1 (stereo not given) and print it.
[reply] 21.4 µM (inactive)

[ask] Name the recorded GI50 of the item COC(C(=O)NCCCCNC(=O)C(OC)c1ccccc1)c1ccccc1 (stereo not given) in your answer.
[reply] > 100 µM (inactive)

[ask] Give the value of GI50 reported for the following: CC1(CF)SCc2nc3ccccc3n21 (stereo not given)
[reply] > 100 µM (inactive)

[ask] Please indicate GI50 recorded for O=P(O)(O)C(NCC(O)CN1CCOCC1)P(=O)(O)O (stereo not given)
[reply] > 100 µM (inactive)

[ask] Please supply the value of reported GI50 for the item Cn1c(O)c(C(=O)Nc2ccc([N+](=O)[O-])cc2)c(=O)n(C)c1=S
[reply] 4.33 µM (inactive)
